Attribution: paper PMC12009303

Target: T1, AAV9 capsid (adeno-associated virus serotype 9, UniProt Q6JC40)
T1 construct: also called wtAAV9; AAV9 vector; copies: 60
Assay: cryo-EM structure; purified AAV9 vectors mixed with Fabs at ~2 Fabs per potential VP binding site (~1:120 capsid to Fab); icosahedral reconstruction and localized reconstruction with symmetry relaxation
Conditions: both partners purified

binder | binding result
Fab3-7 (Fab, V domains shown) VH: QVQLQESGPGLVKPSETLSLTCTVSGGSISNYYWNWIRQPPGKGLEWIGYVHYSGSTNYNPSLKSRVSVSVDTSKNQFSLNLGSVTAADTAVYYCARQSRSYYNEVITDPKYNFDYWGQGTLVTVSS VL: QSALTQPASVSGSPGQSITISCTGTSSDVGGYDYVSWYQQHPGKAPKLMIYDVSNRPSGVSNRFSGSKSGNTASLTISGLQAEDEADYYCSSYTSISTLVFGGGTKLTVL | binds
Fab2-5 (Fab, V domains shown) VH: EVQLVESGGGLVKPGGSPRLSCAASGFNFGSYSMNWVRQAPGKGLEWVSSISSSSSYIYYADSVKGRFTISRDNAKHSLYLQVNSLRAEDTAVYYCARDPTTYGYNSAWDKKGWYFDLWGRGTLLTVS VL: VLTQPPSVSAAPGQMVTISCSGSSSNIGNDYISWYQQLPGTAPKLLIYDNNERPSGIPDRFSGSKSGTSATLGITGVQTGDEADYYCGTWDSSLSAWVFGEGTKLTVV | binds
Fab1-3 (Fab, V domains shown) VH: VQLVESGGGVVQPGRSLRLSCAASGFSFSSFVFHWVRQAPGKGLEWVAVISYDGSNKNYADSVKGRFTISRDNSKNTLFLQMNSLSADDTAVYYCARGAICSSTTCYLGDSYYFYGMDVWGQGTTVTVSS VL: LTQPPSVSGAPGQRVTISCTGSRSNIGAGYDVHWYQQLPGTAPKLLIYGNSNRPSGVPDRFSGSKSGTSASLAITGLQTDDEADYYCQSYDSSLSGSVFGGGTKLTVL | binds
